# System: OV90
# PROCEDURE_DETAILS: Primary qHTS to identify gynecologic anti-cancer compounds using libraries of approved drugs and bioactive compounds (AID 1345084); further: on the % scale 0 is the no-effect control and ±100 the full control effect; nearly all actives have a fitted effect of over 55% in size
# CONDITION_DESCRIPTION: Gynecologic cancer cell panel viability, ATPlite luminescence, 48 h; series mostly up to 57.5 µM
Inconclusive results are not listed. Activity calls are given as the source filed them. The call rests on the fitted dose curve; in most records, active means well fitted cell-killing curve with a large enough effect; inconclusive means small, poorly fitted or top-dose-only effect, or effect the other way; inactive means flat fitted curve, though single readings scatter.
QUANTITY: activity change, negative = cytotoxicity

The examples below pair each entry with its known result.
MOLECULE	activity change, negative = cytotoxicity
C=CC1C(OC2OC(CO)C(O)C(O)C2O)OC=C2C(=O)N3C(C(=O)O)Cc4c([nH]c5ccccc45)C3CC21 (stereo not given)	inactive
CC(=O)N[C@H]1[C@H](O[C@H]2CC[C@@]3(C)C(CC[C@]4(C)C3CC=C3C5CC(C)(C)CC[C@]5(C(=O)O)[C@H](O)C[C@]34C)C2(C)C)O[C@H](CO[C@@H]2OC[C@H](O)[C@H](O)[C@H]2O[C@@H]2OC[C@@H](O)[C@H](O)[C@H]2O)[C@@H](O)[C@@H]1O (stereo not given in full)	9.62% [at 11.6 µM] (inactive)
C=CC(C)(CC/C=C(\C)C(=O)OC)OC1OC(COC(=O)CC(C)(O)CC(=O)O)C(OC2OC(CO)C(O)C(O)C2O)C(O)C1O (stereo not given)	inactive
C/C=C/c1ccc2c(c1)[C@@H](C)[C@H](c1ccc(O)cc1)O2	inactive

The record that follows has no activity change, negative = cytotoxicity shown yet.
Request: // activity change, negative = cytotoxicity lookup, key: C[C@@H]1O[C@@H](O[C@@H]2[C@@H](O)[C@H](O[C@H]3[C@H](O[C@H]4CC[C@@]5(C)C(CC[C@]6(C)C5CC=C5[C@@H]7CC(C)(C)CC[C@]7(C(=O)O[C@@H]7O[C@H](CO)[C@@H](O)[C@H](O)[C@H]7O[C@@H]7O[C@@H](C)[C@H](O[C@@H]8O[C@@H](C)[C@H](O)[C@@H](O)[C@H]8O)[C@@H](O)[C@H]7O)CC[C@]56C)[C@@]4(C)CO)O[C@H](C(=O)O)[C@@H](O)[C@@H]3O)O[C@H](CO)[C@H]2O)[C@H](O)[C@H](O)[C@H]1O (stereo not given in full)
Result: 6.41% [at 6.55 µM] (inactive)

----------
Quick list: max response per entry.
# Tested on: NIH3T3
# PROCEDURE_DETAILS: Cytotoxic Profiling of Annotated Libraries Using Quantitative High-Throughput Screening (AID 1296008); further: on the % scale 0 is the no-effect control and ±100 the full control effect; nearly all actives have a fitted effect of over 60% in size
# CONDITION_DESCRIPTION: Five cell lines viability, CellTiter-Glo ATP luminescence, 48-72 h; stronger effect = lower value
# Description: Cell-based phenotypic screening is a commonly used approach to discover biological pathways, novel drug targets, chemical probes and high-quality hit-to-lead molecules. […] A pintool (Kalypsys) was used to transfer 23 nL of compound solution to the 1536-well assay plates. […] Plates were left at room temperature for 10 min before imaging the ATP-coupled luminescence using a ViewLux microplate imager (PerkinElmer, Waltham, MA).
Inconclusive results are not listed. Calls of active or inactive are those of the source. Calls come from the whole dose curve; as a rule, active = well fitted inhibition curve with a large enough effect; inconclusive = small, poorly fitted or top-dose-only effect; inactive = flat fitted curve, though single readings scatter.

MOLECULE	max response
CC1(C)CC[C@]2(C(=O)O[C@@H]3O[C@H](CO[C@@H]4O[C@H](CO)[C@@H](O)[C@H](O)[C@H]4O[C@@H]4O[C@H](CO)[C@H](O)[C@H](O)[C@H]4O)[C@@H](O)[C@H](O[C@@H]4O[C@H](CO)[C@@H](O)[C@H](O)[C@H]4O)[C@H]3O)CC[C@]3(C)C(=CCC4[C@@]5(C)CC[C@H](O[C@@H]6OC[C@@H](O)[C@H](O)[C@H]6O)[C@@](C)(C(=O)O)C5CC[C@]43C)[C@@H]2C1 (some centres not stated)	1% (inactive)

The record that follows has no max response shown yet.
Request: // max response lookup, key: CC12CCC3c4ccc(OC5OC(C(=O)O)C(O)C(O)C5O)cc4CCC3C1CCC2O (configuration not stated)
Result: 3.14% (inactive)

----------
# STUDY_SYSTEM: Mitogen-activated protein kinase 10 (Mus musculus)
# PROCEDURE_DETAILS: JNK3 AlphaScreen Assay (AID 530);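 further: kinase came from lysate of stimulated human HepG2 cells; signal reports phosphorylation of biotinylated GST-cJun 1-79 at Ser73 with 10 µM ATP; on the % scale 0 is the no-effect control and ±100 the full control effect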
# CONDITION_DESCRIPTION: JNK3 lysate, c-Jun phosphorylation; series mostly up to 57.1 µM
Results filed as inconclusive are left out. The source made the active and inactive calls. Calls follow the shape of the dose curve; as a rule, active = well fitted curve in either direction with a large enough effect (not every such curve was filed as active); inconclusive = small, poorly fitted or top-dose-only effect, or another doubt; inactive = flat fitted curve, though single readings scatter.

MOLECULAR_STRING	STUDY_SYSTEM	activity change, negative = inhibition
CC(=O)O[C@@H]1CC(C)=C2[C@H]1[C@H](C)CC[C@H]2/C=C(\C)C(=O)O	Mitogen-activated protein kinase 10 (Mus musculus)	inactive
Cc1ccccc1CN1C2=NCCN2C(=O)C2=C1CCN(Cc1ccccc1)C2	Mitogen-activated protein kinase 10 (Mus musculus)	-0.448% [at 11.4 µM] (inactive)
CC(=O)O[C@H]1C(=O)[C@@]2(C)[C@H]([C@H](OC(=O)c3ccccc3)[C@]3(O)C[C@H](OC(=O)[C@H](O)[C@@H](NC(=O)c4ccccc4)c4ccccc4)C(C)=C1C3(C)C)[C@]1(OC(C)=O)CO[C@@H]1C[C@@H]2O	Mitogen-activated protein kinase 10 (Mus musculus)	inactive
Nc1ccccc1N	Mitogen-activated protein kinase 10 (Mus musculus)	inactive

----------
# Test system: CAOV3
# PROCEDURE_DETAILS: Primary qHTS to identify gynecologic anti-cancer compounds using libraries of approved drugs and bioactive compounds (AID 1345084); further: on the % scale 0 is the no-effect control and ±100 the full control effect; nearly all actives have a fitted effect of over 55% in size
# CONDITION_DESCRIPTION: Gynecologic cancer cell panel viability, ATPlite luminescence, 48 h; series mostly up to 57.5 µM
Inconclusive results are not listed. Calls of active or inactive are those of the source. Calls come from the whole dose curve; as a rule, active = well fitted cell-killing curve with a large enough effect; inconclusive = small, poorly fitted or top-dose-only effect, or effect the other way; inactive = flat fitted curve, though single readings scatter.
The reply should be one of these categories: yes for active, no for inactive

Before answering, review these 3 worked examples.
COMPOUND	STUDY_SYSTEM	LABEL_CLASS
COc1cc(Nc2nc3ccccc3nc2NS(=O)(=O)c2ccc(NC(=O)c3ccc(OC)c(C)c3)cc2)cc(OC)c1	CAOV3	no
C=CC1C(OC2OC(CO)C(O)C(O)C2O)OC=C(C(=O)OC)C1CC1CC(=O)CC(CCc2ccc(O)cc2)O1 (centres undefined)	CAOV3	no
CC(C)CCC[C@@H](C)[C@H]1CC[C@H]2[C@@H]3CC(=O)[C@H]4C[C@@H](O)CC[C@]4(C)[C@H]3CC[C@]12C	CAOV3	no

Request: Hello, I am checking results. What call was entered for CC(C)=CCC/C(C)=C/Cc1ccc(O)c(C2OC(=O)c3cc(C(=O)O)cc(O)c32)c1O (centres undefined) ?
Result: no

----------
# System: NIH3T3
# PROCEDURE_DETAILS: Cytotoxic Profiling of Annotated Libraries Using Quantitative High-Throughput Screening (AID 1296008); further: on the % scale 0 is the no-effect control and ±100 the full control effect; nearly all actives have a fitted effect of over 60% in size
# CONDITION_DESCRIPTION: Five cell lines viability, CellTiter-Glo ATP luminescence, 48-72 h; stronger effect = lower value
Results filed as inconclusive are left out.
QUANTITY: max response (%)
Hi! Could you send only the number? It should be in %, unit omitted.

COMPOUND	OBSERVED_MEASUREMENT
CC(C)NCC(C(=O)N1CCN(c2ncnc3c2C(C)CC3O)CC1)c1ccc(Cl)cc1 (stereo not given)	3.08

Request: // max response lookup, key: N#C[C@@H]1C[C@H](F)CN1C(=O)CNC1[C@H]2CN(C(=O)c3ccc(F)cc3)C[C@@H]12 (stereo not given in full)
Result: -2.06

Request: // max response lookup, key: COc1ccc(CC2NCCc3c2[nH]c2ccc(C)cc32)cc1OC (stereo not given)
Result: -1.6

Request: // max response lookup, key: CN1CCc2nc(C(=O)N[C@@H]3C[C@@H](C(=O)N(C)C)CC[C@@H]3NC(=O)C(=O)Nc3ccc(Cl)cn3)sc2C1
Result: -49.4

Request: // max response lookup, key: C/C1=C\[C@H]2OC(=O)[C@@H](C)[C@@H]2CC/C(C(=O)O)=C/CC1
Result: -2.73

Request: // max response lookup, key: CC1=C(C(=O)O)/C(=C\CO[C@@H]2O[C@H](CO)[C@@H](O)[C@H](O)[C@H]2O)C(OC(=O)/C=C/c2ccc(O)cc2)C1 (stereo not given in full)
Result: -19.1

Request: // max response lookup, key: CC(=O)C1=C(C)N(c2cccc(C(F)(F)F)c2)C(=O)N[C@H]1c1ccc(C#N)nc1
Result: -21.8

Request: // max response lookup, key: CCC[C@@H]1O[C@@H]2C[C@H]3[C@@H]4CCC5=CC(=O)C=C[C@]5(C)[C@H]4[C@@H](O)C[C@]3(C)[C@]2(C(=O)CO)O1
Result: -20.8

Request: // max response lookup, key: CC1OC2OC(=O)C3(C)CC4=C(CO)C5=C(CC(=O)C4(C)C(C1=O)C23)C(C)(C)OC(=O)C5 (stereo not given)
Result: -2.31

Request: // max response lookup, key: CC(=O)O[C@@H](CO[C@@H]1O[C@H](CO)[C@H](O)[C@H](O)[C@H]1O)[C@]1(C)C=C2CC[C@@H]3C(C)(C)[C@@H](O)CC[C@@]3(C)[C@@H]2CC1
Result: 4.41

Request: // max response lookup, key: C[C@@]12C[C@]3(O)O[C@H](O1)[C@]1(COC(=O)c4ccccc4)[C@H]3C[C@@]12O[C@@H]1O[C@H](CO)[C@@H](O)[C@H](O)[C@H]1O
Result: 3.01

Request: // max response lookup, key: CC(C)(C)OC(=O)N1CCC(OCc2nc(-c3ccncc3)no2)CC1
Result: -1.32

Request: // max response lookup, key: Cc1cc(Cl)ccc1COc1ccnn1-c1cc(C(=O)O)ccn1
Result: 0.276

Request: // max response lookup, key: CC[C@H]1OC(=O)[C@](C)(F)C(=O)[C@H](C)[C@@H](O[C@@H]2O[C@H](C)C[C@H](N(C)C)[C@H]2O)[C@](C)(OC)C[C@@H](C)C(=O)[C@@H](C)[C@H]2N(CCCCn3cc(-c4cccc(N)c4)nn3)C(=O)O[C@]12C
Result: 1.26

Request: // max response lookup, key: C[C@@H]1C(=O)O[C@H](C)[C@H]1CC(=O)[C@](C)(O)[C@H]1CC[C@@]2(O)C3=CC(=O)[C@@H]4C[C@@H](O)[C@@H](O)C[C@]4(C)C3CC[C@]12C (stereo not given in full)
Result: 1.5
